Test system: T. b. brucei Lister 927
Test: Potency assessment against T. b. brucei Lister 927
Assay type: cell-based, Trypanosoma brucei brucei
Conditions: Trypanosoma brucei; Table 3
Quantity: EC50 (µM)
Numbers only, in µM.

Q) Supply measured EC50 of N=C(N)c1ccc(OCCCCCOc2ccc(C(=N)N)cc2)cc1 [Pentamidine] in your reply.
A) 0.0303

====

Test system: L. donovani promastigotes
Experiment: Potency assessment against Leishmania donovani promastigotes (growth, cell counting)
Format: cell-based
Conditions: Leishmania donovani; Table 2B; read-out: L. donovani Promastigote IC50, growth inhibition
For each record, write down the corresponding IC50.
Answers are plain numbers, in µM.

Go through the list and state IC50 for each entry.
1. CC(C)(C)OC(=O)Nc1ccc(-c2nc(N3CCOCC3)c3cnn(C4CCN(Cc5ccccc5)CC4)c3n2)cc1
2. Oc1ccccc1-c1nc(N2CCOCC2)c2cnn(C3CCN(Cc4ccccc4)CC3)c2n1

A)
1: 6.34; 2: 8.01

Q) Supply measured IC50 of c1ccc(CN2CCC(n3ncc4c(N5CCOCC5)nc(-c5ccncc5)nc43)CC2)cc1 in your reply.
A) 8.06

====

Tested on: Leishmania
Assay: Leishmania growth inhibition summarised across both species and stages
Assay type: cell-based
Settings: range over L. major and L. donovani, promastigotes and amastigotes; read-out: inhibition of Leishmania across both species and stages
pEC50: −log10 of the molar value.
Quantity: pEC50

Q) Provide pEC50, tested on Leishmania, for Oc1cccc(-c2nc(N3CCOCC3)c3oc4ncccc4c3n2)c1 .
A) 5.98 to 6.49

====

For each record, write down the corresponding EC50.
System: T. b. rhodesiense
Assay: Potency assessment against T. b. rhodesiense EATRO3 bloodstream form (AlamarBlue, 72 h)
Type: cell-based, Trypanosoma brucei rhodesiense
Conditions: Trypanosoma brucei, RHODESIENSE; bloodstream form, average of three replicates; read-out: Effective concentration (EC50) T. b. rhodesiense
Numbers only, in nM.

Compound	Readout Unit	EC50
Oc1cccc(-c2nc(N3CCOCC3)c3oc4ncccc4c3n2)c1 [PI-103]	nM	105

Q) Supply measured EC50 of COC(=O)Nc1ccc(-c2nc(N3CCOCC3)c3cnn(C4CCN(C(=O)OC)CC4)c3n2)cc1 [WYE-354] in your reply.
A) 780

====

Test system: L. donovani axenic amastigotes
Assay: Potency assessment against Leishmania donovani axenic amastigotes (growth, cell counting)
Format: cell-based
Settings: Leishmania donovani; Table 2B; read-out: L. donovani Axenic Amastigote IC50, growth inhibition
For each record, write down the corresponding IC50.
One number for each entry, in µM.

For orientation, consider the following solved cases.
Oc1ccccc1-c1nc(N2CCOCC2)c2cnn(C3CCN(Cc4ccccc4)CC3)c2n1 3.02
CCOCCNc1nc(-c2ccccc2)nc2c1oc1ncccc12 12.5
c1ccc(CN2CCC(n3ncc4c(N5CCOCC5)nc(-c5ccncc5)nc43)CC2)cc1 2.43

Here is another molecule to look at.
Q) Provide IC50, tested on L. donovani axenic amastigotes, for CC(C)(C)OC(=O)Nc1ccc(-c2nc(N3CCOCC3)c3cnn(C4CCN(Cc5ccccc5)CC4)c3n2)cc1 .
A) 6.9

====

System: T. cruzi trypomastigotes
Assay: T. cruzi intracellular replication in NIH/3T3 host cells (β-galactosidase, CPRG)
Assay type: cell-based, Trypanosoma cruzi
Settings: Trypanosoma cruzi, NIH3T3, 96 h; trypomastigotes with 3T3 host cells, four days, three replicates within ±10.2%; read-out: Effective concentration (EC50) T. cruzi
For each record, write down the corresponding EC50.

For orientation, consider the following solved cases.
Molecule	Observed Measurement
O=c1cc(N2CCNCC2)oc2c(-c3ccccc3)cccc12 [LY303511]	> 10 µM
COC(=O)Nc1ccc(-c2nc(N3CCOCC3)c3cnn(C4CCN(C(=O)OC)CC4)c3n2)cc1 [WYE-354]	> 10 µM
O=c1cc(N2CCOCC2)oc2c(-c3ccccc3)cccc12 [LY294002]	> 50 µM
O=c1cc(N2CCOCC2)nc2c3ccccc3ccn12 [Compound 401]	> 10 µM
Oc1cccc(-c2nc(N3CCOCC3)c3oc4ncccc4c3n2)c1 [PI-103]	> 25 µM

Q) Supply measured EC50 of COc1ccc(-c2ccc3c(N4CCOCC4)nc(N4C[C@@H](C)O[C@@H](C)C4)nc3n2)cc1CO [Ku-0063794] in your reply.
A) > 10 µM

The measured values listed here are drawn from patent US20130296316A1.
